Tested on: barnyardgrass
method_notes: Test C flooded paddy test
Type: in vivo, Echinochloa crus-galli
run_conditions: Flood, 62 g ai/ha; scale 0 to 100 (0 no effect, 100 complete control)
Reported Plant response rating, Barnyardgrass values for a set of compounds
reported_property: Plant response rating, Barnyardgrass

1) CCn1nc(C(F)(F)F)c(C[S+]([O-])c2cccc[n+]2[O-])c1OCC(F)(F)F (racemic) = 55
2) Cn1nc(C(F)(F)F)c(CS(=O)(=O)c2ccc(Cl)c[n+]2[O-])c1OCC(F)F = 0
3) CC(Oc1c(C[S+]([O-])c2cccc[n+]2[O-])c(C(F)(F)F)nn1C)C(F)(F)F (stereo not shown) = 0
4) CCn1nc(C(F)(F)F)c(CS(=O)(=O)c2cc(C)cc[n+]2[O-])c1OCC(F)(F)F = 0
5) Cc1cc[n+]([O-])c([S+]([O-])Cc2c(C(F)(F)F)nn(C)c2OC(C)C(F)(F)F)c1 (stereo not shown) = 0
6) C#CCOc1c(C[S+]([O-])c2cccc[n+]2[O-])c(C(F)(F)F)nn1C (stereo not shown) = 0
7) Cn1nc(C(F)(F)F)c(C[S+]([O-])c2cc(C(C)(C)C)cc[n+]2[O-])c1OCC(F)(F)F (racemic) = 30

Each recorded value in this set is attributed to patent US20100298141A1.
